system: Plasmodium berghei; assay: Screen against P. berghei liver stage (PbLuc), transformed with Luciferase, at 10uM; format: functional, HepG2; settings: tested at 10 uM
The whole screen tested about 69,000 compounds, of which about 8,600 (12%) showed an effect of 50% or more. This is one part of a sample in which strong results are shown more often than they occur.
measurement.type: INHIBITION (%)
Only the number, expressed in %, is required.

The recorded INHIBITION for OCCNc1cc(N2CCN(Cc3ccccc3)C(CCO)C2)ncn1 (configuration not stated) is -11.8

# INHIBITION of COCCC(=O)N(C)Cc1nc(C(F)(F)F)cs1 = -26.8

// field: INHIBITION; key: CC1CN(c2ncnc3c2cnn3C)CCN1c1nccs1 (configuration not stated) ; value = 5.91

Quick note, INHIBITION for c1ccc(C2CN(c3ncnc4[nH]cnc34)CCO2)cc1 (configuration not stated) landed at -66.9

The reported value for c1ncn(CC2CCCN2Cc2csc(C3CCCCC3)n2)n1 (configuration not stated) in terms of INHIBITION is 23.5

Looking up Cc1ccc(CN2CCN(c3ncnc4[nH]cnc34)CC2CCO)cc1 (configuration not stated) , I found its INHIBITION recorded as 20

Per the records, this compound ( OCCC1CN(c2ncnc3[nH]cnc23)CCN1Cc1cccs1 (configuration not stated) ) has INHIBITION equal to 53.7

Consider CC1CN(c2ncnc3sccc23)CCN1c1nccs1 (configuration not stated) . Its measured INHIBITION is 60.2

Note to self: INHIBITION recorded for O=C(O)c1cccnc1N1CCN(Cc2ccc(F)cc2)C(CCO)C1 (configuration not stated) was 68.6

Form field INHIBITION, entry Cc1noc(C)c1CN1CCC2(CC1)CC(Oc1cccnc1)C2 : 30.5

The recorded INHIBITION for entry c1csc(N2CCCN(c3ncnc4sccc34)CC2)n1 equals 66.8

Record CN(C)C(=O)CN(C)C(=O)c1csc(Br)c1 . Reported INHIBITION: -13.2

====

system: Plasmodium berghei; test: Screen against P. berghei liver stage (PbLuc), transformed with Luciferase, at 10uM; assay type: functional, HepG2; details: tested at 10 uM
Out of some 69,000 compounds screened, about 8,600 (12%) showed an effect of 50% or more. This excerpt belongs to a sample that is enriched for strong results.
measurement.type: INHIBITION (%)
Write the value in % as a bare number.

Reported INHIBITION for CCCSCC(=O)N1C[C@H]2CC[C@@H](C1)N(Cc1ccccn1)C2=O was 35.9

Cn1cc(CN2C[C@@H]3CCCO[C@@H]3[C@H](N3CCCC3=O)C2)cn1 has a reported INHIBITION of -3.51

Measured INHIBITION, CC(C)n1nc2c(cc1=O)CN(CCOc1cccc(C#N)c1)CC2 : 23.1

Looking up Cc1nc(S(=O)(=O)N2CCSC3(CCCCC3)C2)cn1C , I found its INHIBITION recorded as -12.1

response.value for Cc1ccc(NC(=O)c2n[nH]c(-n3cnnc3)n2)cc1 (field: INHIBITION) = -5.59

Given item CN(C)[C@@H]1CCN(c2ncc(F)cn2)[C@H]1Cc1ccncc1 , the value recorded as its INHIBITION is -42.9
